The reported measurements were obtained from ChEMBL document CHEMBL2346598.

Tested on: Mus musculus
Test: Hypnotic effect in DBA mouse assessed as potentiation of baclofen-induced loss of righting reflex at 1 mg/kg, ip incubated for 30 mins prior to baclofen-challenge
Format: functional, organism-based
Parameters: dose 1 mg/kg
Calls of active or inactive are those of the source. The rule behind the calls is not given here.
Labels: T = active, F = inactive

{"compound-structure-string": "CCc1c(C)sc(NC(=O)c2ccc(Cl)cc2)c1C(=O)OC", "classification": "T"}
{"compound-structure-string": "CCc1c(C)sc(NC(=O)c2ccc(C(C)(C)C)cc2)c1C(=O)OC", "classification": "T"}
{"compound-structure-string": "CCc1c(C)sc(NC(=O)c2ccc(C(F)(F)F)cc2)c1C(=O)OC", "classification": "T"}
{"compound-structure-string": "CCc1c(C)sc(NC(=O)c2ccc(C)cc2)c1C(=O)OC", "classification": "F"}
